Molecular target: Thromboxane-A synthase (Homo sapiens) (UniProt P24557)
Sequence (P24557 whole entry, looked up): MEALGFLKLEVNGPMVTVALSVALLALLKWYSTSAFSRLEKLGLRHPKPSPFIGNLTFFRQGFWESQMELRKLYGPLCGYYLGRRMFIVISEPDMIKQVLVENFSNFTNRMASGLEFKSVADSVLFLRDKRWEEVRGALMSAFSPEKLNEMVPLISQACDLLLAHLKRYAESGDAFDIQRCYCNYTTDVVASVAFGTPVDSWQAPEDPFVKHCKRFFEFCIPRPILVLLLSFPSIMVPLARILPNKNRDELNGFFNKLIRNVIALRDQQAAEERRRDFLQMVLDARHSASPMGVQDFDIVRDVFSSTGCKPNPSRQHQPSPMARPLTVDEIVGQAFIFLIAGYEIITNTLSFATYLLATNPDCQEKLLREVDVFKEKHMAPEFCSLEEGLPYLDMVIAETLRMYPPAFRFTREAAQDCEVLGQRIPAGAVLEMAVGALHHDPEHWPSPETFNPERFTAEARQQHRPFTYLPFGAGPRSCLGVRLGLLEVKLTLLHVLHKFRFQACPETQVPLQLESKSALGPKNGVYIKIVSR
observed-property: IC50

CC(c1cc2ccccc2s1)N(O)C(N)=O (racemic) [Leutrol] has a reported IC50 of > 20 µM

====

Target: Arachidonate 5-lipoxygenase (Cavia porcellus)
Assay: In vitro inhibitory activity against 5-lipoxygenase by reduction of 5-hydroxyeicosatetraenoic acid (5-HETE) formed in guinea pig polymorphonuclear leukocytes (PMNs).
pIC50: −log10 of the molar value.
Give class 1 when the value for pIC50 is at least 7. Give class 0 when it is less.

Here's what some known entries look like.
NC(=S)N(O)CC1=Cc2cc(Oc3ccccc3)ccc2OC1 | class 0
NC(=O)N(O)CC1=Cc2cc(OCc3ccc(C(F)(F)F)cc3)ccc2OC1 | class 0
CCCCCCOc1ccc2c(c1)C=C(CN(O)C(N)=O)CO2 | class 0

Pending compound:
Decide: is the reported value of pIC50 for `CC(C)NC(=O)N(O)CC1=Cc2cc(Oc3ccccc3)ccc2OC1` equal to or greater than 7?
class 1

====

Molecular target: Arachidonate 5-lipoxygenase (Cavia porcellus)
Assay: In vitro inhibitory activity against 5-lipoxygenase by reduction of LTB4 formed in guinea pig polymorphonuclear leukocytes (PMNs).
So I've got a bunch of compounds here, and I need their pIC50 values.
Numbers only, as −log10 of the molar value.

CCCC1Oc2ccc(Oc3ccccc3)cc2C=C1CN(O)C(N)=O (stereo unspecified) | 6.06

Each of the following entries comes with a recorded value; kindly state pIC50 for each.
1. C=CCNC(=O)N(O)CC1=Cc2cc(Oc3ccccc3)ccc2OC1
2. CC1Oc2ccc(Oc3ccccc3)cc2C=C1CN(O)C(N)=O (stereo unspecified)
3. NC(=O)N(O)CC1=Cc2cc(OCC3CCCCC3)ccc2OC1

1: 7.36; 2: 7.06; 3: 5.86

Batch request: pIC50 for each of the following compounds.
1. NC(=S)N(O)CC1=Cc2cc(Oc3ccccc3)ccc2OC1
2. NC(=O)N(O)CC1=Cc2cc(OCc3ccc(C(F)(F)F)cc3)ccc2OC1
3. NC(=O)N(O)CC1=Cc2cc(OCCCc3ccccc3)ccc2OC1
4. CC(C)NC(=O)N(O)CC1=Cc2cc(Oc3ccccc3)ccc2OC1
5. NC(=O)N(O)CC1=Cc2cc(-c3ccccc3)ccc2OC1

1. 6.70
2. 6.31
3. 6.80
4. 7.20
5. 6.64

Kindly give each listed record's pIC50.
1. NC(=O)N(O)CC1=Cc2cc(Br)ccc2OC1
2. CCCCNC(=O)N(O)CC1=Cc2cc(Oc3ccccc3)ccc2OC1
3. CCCCCCOc1ccc2c(c1)C=C(CN(O)C(N)=O)CO2
4. NC(=O)N(O)CC1=Cc2cc(OCc3ccccc3)ccc2OC1

1. 5.85
2. 7.16
3. 6.47
4. 6.42

Below is a list of compounds. For each, state its recorded pIC50.
1. CCOC(=O)CNC(=O)N(O)CC1=Cc2cc(Oc3ccccc3)ccc2OC1
2. CC1(C)Oc2ccc(Oc3ccccc3)cc2C=C1CN(O)C(N)=O

1. 7.13
2. 6.36

====

Target: Arachidonate 5-lipoxygenase (Cavia porcellus)
Test: In vitro inhibitory activity against 5-lipoxygenase by reduction of 5-hydroxyeicosatetraenoic acid (5-HETE) formed in guinea pig polymorphonuclear leukocytes (PMNs).
observed-property: pIC50
One number for each entry, as −log10 of the molar value.

CC1(C)Oc2ccc(Oc3ccccc3)cc2C=C1CN(O)C(N)=O | 6.51

Let us examine a further case.
# molecule CCCC1Oc2ccc(Oc3ccccc3)cc2C=C1CN(O)C(N)=O (stereo not drawn) ; its pIC50 = 6.06
